- Test system: A498 renal
- method_description: NCI-60 one-dose screen, 48 h
- run_parameters: 10 µM unless noted
About 83,000 compounds went through this panel and 20% of them were active in at least one assay; those are over-represented in the sample as a whole. Calls of active or inactive are those of the source. Rule for the calls: active = growth percent below 10; inactive = the rest.
Classes used: active, inactive

compound	system_name	discrete_label
CC(C)(C)n1cc(-c2ccnc(NCCCNS(=O)(=O)c3ccc(Br)cc3)c2)c(-c2cccc(O)c2)n1	A498 renal	inactive
C=CCn1c2ccccc2c2c3c(c4c5ccccc5n(CC=C)c4c21)C(=O)N(O)C3=O	A498 renal	inactive
Brc1cccc(-c2cc(-c3ccc4nccnc4c3)[nH]n2)c1	A498 renal	active
Cc1ccc(S(=O)(=O)NCCCNc2cc(-c3cn(C(C)(C)C)nc3-c3cccc(O)c3)ccn2)cc1	A498 renal	inactive
CC12CCC3C4(C)COC(c5ccccc5Cl)OC4CCC3(C)C1CC(C1=CCOC1=O)O2 (stereo unspecified)	A498 renal	inactive
Cc1cc(N/N=C/c2nc(-c3ccc(Br)cc3)oc2C)c2cc(Cl)ccc2n1	A498 renal	inactive
COc1cc(-c2ncn(/C=C\C(=O)OC(C)C)n2)cc(C(F)(F)F)c1	A498 renal	active
COc1cc(-c2nn(-c3cccc(NC(=O)c4ccc(N5CCOCC5)c(C(F)(F)F)c4)c3)cc2-c2ccncc2)ccc1Cl	A498 renal	active
CCN(CC)CCC(CNc1ccnc2cc(Cl)ccc12)c1ccc(Cl)cc1 (stereo unspecified)	A498 renal	active
Nc1cccc(Cl)c1N	A498 renal	inactive
Cc1ccc(N2CCN(C(C)C(N)=O)CC2)cc1 (stereo unspecified)	A498 renal	inactive
Cc1ccc(S(=O)(=O)NCCNc2nccc(-c3c(-c4ccc(O)cc4)nc4sccn34)n2)cc1	A498 renal	inactive
Brc1ccc(-c2[nH]ncc2-c2c[nH]c3ccccc23)cc1	A498 renal	inactive
C=C(C)[C@@H]1C[C@H](O)Cc2cc(F)ccc2N1	A498 renal	inactive
O=C(CN1CCN(c2cc3c(cc2F)c(=O)c(C(=O)N/N=C/c2ccccc2O)cn3C2CC2)CC1)N/N=C\c1ccccc1O	A498 renal	inactive
COc1cc(Nc2nc(N[C@H]3CCCC[C@@H]3N)nc3cc[nH]c(=O)c23)cc(OC)c1	A498 renal	inactive
O=Nc1c(-c2cccc([N+](=O)[O-])c2)nc2ncccn12	A498 renal	inactive
COc1ccc(/C(C#N)=C/c2cc(OC)c(OC)c(OC)c2)cc1	A498 renal	inactive
COc1ccc(-c2[nH]nc(N)c2-c2cc(OC)c3c(c2)OCO3)cc1	A498 renal	inactive
CCCCOc1ccc(/C=C2/SC(N3CCOCC3)=NC2=O)cc1OCC	A498 renal	inactive
O=C(CSc1nc2ccccc2[nH]1)Nc1ccc(-c2nc3ccccc3s2)c(Cl)c1	A498 renal	inactive

====

As shown below, each of these compounds has a reported growth value.
- Test system: SR leukemia
- method_description: NCI-60 one-dose screen, 48 h (100 = growth as untreated, 0 = no growth, -100 = all killed)
- run_parameters: 10 µM unless noted
The panel holds about 83,000 compounds, 20% with a hit somewhere; the sample as a whole holds those more often.

compound	growth [%]
CCN(CC)c1ccc2[nH]c3c(C(N)=O)cc(=O)c(=O)c=3oc2c1	5.09
CNc1ccc(Br)c2c1C(=O)c1ccccc1C2=O	101
COc1cc2c(cc1OCCCCCn1c3ccccc3c3ccccc31)N=C[C@@H]1CCCN1C2=O	-54.5
O=C1c2c(c3c4ccccc4n(CCCCCCBr)c3c3[nH]c4ccccc4c23)C(=O)N1O	6.48
COc1ccc(-n2c(-c3ccccc3)c(-c3ccccc3)c3c(SCC(=O)N/N=C/c4ccc(Cl)cc4)ncnc32)cc1	105
NC(N)=N/N=C/c1ccc(-c2ccc(-c3cc(Cl)cc(Cl)c3)s2)cc1	2.59
CC12CCC3C4(C)COC(c5ccco5)OC4CCC3(C)C1CC(C1=CCOC1=O)O2 (stereo not drawn)	95.7
C=C(C)[C@@H]1CC[C@]2(C(=O)O)CC[C@]3(C)[C@H](CC[C@@H]4[C@@]5(C)C[C@@H](CC#Cc6ccc(C(F)(F)F)cc6)[C@H](O)C(C)(C)[C@@H]5CC[C@]43C)[C@@H]12	15.6

Hey, just so you know, these numbers are from PubChem BioAssay (NCI).
